Tested on: PC-3 prostate
Assay: NCI tumour cell line growth inhibition, 48 h

compound: CC1=C(CC(=O)c2cccc([N+](=O)[O-])c2)C(=O)c2ccccc2C1=O
tested_on: PC-3 prostate
TGI: 63.2 µM
--
compound: COC(=O)C(CCSC)NC(=O)CNC(=O)CSc1nnc(COc2ccc(Cl)cc2)n1-c1ccccc1 (stereo not drawn)
tested_on: PC-3 prostate
TGI: 30.2 µM
--
compound: COc1ccc(N(CC(=O)NCCC[Te]c2ccccc2)C(=O)CNC(=O)OC(C)(C)C)cc1
tested_on: PC-3 prostate
TGI: 10.1 µM
--
compound: CCN(CC)CCCCCCNc1cc(OC)cc2cccnc12
tested_on: PC-3 prostate
TGI: 4.1 µM
--
compound: CC(C)C(C(=O)O)N1C(=O)c2ccccc2C1=O (stereo not drawn)
tested_on: PC-3 prostate
TGI: > 100 µM
--
compound: CC1(C)OC(=S)N(c2ccccc2)C12C=Cc1ccccc1O2 (stereo not drawn)
tested_on: PC-3 prostate
TGI: > 100 µM
--
compound: N#CCN1CCn2c1nsc2=S
tested_on: PC-3 prostate
TGI: > 100 µM
--
compound: O=C(NC1CCN(Cc2ccccc2)CC1)c1ccc(I)cc1
tested_on: PC-3 prostate
TGI: > 100 µM

###

Recorded measurements of TGI, one per entry
Tested on: HL-60(TB) leukemia
Test: NCI tumour cell line growth inhibition, 48 h

compound: COc1ncnc(NS(=O)(=O)c2ccc(N=C3C(=O)N(CN4CCN(c5c(F)cc6c(=O)c(C(=O)O)cn(C7CC7)c6c5OC)CC4C)c4ccc(Br)cc43)cc2)c1OC (centres undefined)
tested_on: HL-60(TB) leukemia
TGI: > 50 µM
--
compound: CCOC(=O)c1nc2cc(C(F)(F)F)ccc2nc1Nc1ccc(OC)cc1
tested_on: HL-60(TB) leukemia
TGI: > 100 µM
--
compound: O=C(/C=C/c1ccccc1)Oc1ccc(C(=O)/C=C/c2ccc(Cl)cc2)cc1
tested_on: HL-60(TB) leukemia
TGI: > 100 µM
--
compound: C/C(=N/N=C(\[O-])c1ccncc1)C(F)(F)F.C/C(=N\N=C(/[O-])c1ccncc1)C(F)(F)F.[Ni+2]
tested_on: HL-60(TB) leukemia
TGI: > 1 µM
--
compound: O=C1C(Cl)C2(CC(/C=C/c3ccccc3)=NN2c2cccc(S(=O)(=O)O)c2)N1c1nc2ccccc2s1 (centres undefined)
tested_on: HL-60(TB) leukemia
TGI: 33.8 µM
--
compound: CCOC(=O)NNC(=O)NCc1cccc(CNC(=O)NNC(=O)OCC)c1
tested_on: HL-60(TB) leukemia
TGI: > 100 µM
--
compound: Cn1cc(C2=C(c3cccc(OC[C@@H](O)CO)c3)C(=O)NC2=O)c2ccccc21
tested_on: HL-60(TB) leukemia
TGI: > 25 µM
--
compound: O=C(c1ccccc1)N(C(=O)c1ccccc1)c1nc(SCc2ccccc2)ns1
tested_on: HL-60(TB) leukemia
TGI: 52.6 µM
--
compound: COC(=O)c1c(C)n([O-])c2cc(Cl)c(Cl)cc2[n+]1=O
tested_on: HL-60(TB) leukemia
TGI: 50.2 µM

###

Test system: SF-268 CNS
Test: NCI tumour cell line growth inhibition, 48 h

compound: Cc1cc(C)nc(NS(=O)(=O)c2ccc(NC(=O)c3cccc4c(Nc5ccc(S(=O)(=O)Nc6cc(C)on6)cc5)c5ccccc5nc34)cc2)n1
TGI: 65.2 µM
--
compound: COC1C(O)C(CO)OC(OC2C(O)COC(OC3C(C)OC(OC4C(O[C@H]5CC[C@@]6(C)C(CC=C7[C@H]6CCC68C(=O)O[C@@](C)(CCCC(C)C)[C@H]6[C@@H](OC(C)=O)C[C@@]78C)C5(C)C)OCC(OS(=O)(=O)O)C4O)C(OC4OCC(O)C(O)C4O)C3O)C2O)C1O (stereo partly drawn)
TGI: 0.685 µM
--
compound: CC1(C)CC(=O)C2=C(C1)OC(N)=C(c1nc(-c3ccccc3)cs1)C2c1ccc(Br)cc1 (stereo not drawn)
TGI: > 150 µg/mL
--
compound: CCOC(=O)C(=CNc1ccc(NC2=NCC(C)S2)cc1)C(=O)OCC (stereo not drawn)
TGI: > 100 µM
--
compound: O=C(c1nc2ccccc2[nH]c1=O)C(O)c1ccccc1 (stereo not drawn)
TGI: > 100 µM
--
compound: O=CNCNCCO
TGI: > 100 µM
--
compound: CCOC(=O)N1N=C(/C(C)=N/OC)C(C)S1=O (stereo not drawn)
TGI: > 100 µM
--
compound: O=C1OC(C(O)CO)C(O)=C1O (stereo not drawn)
TGI: 4020 µM
--
compound: Oc1cccc2ccc(N/N=C/c3cc(CN4CCOCC4)c(O)c4ncccc34)nc12
TGI: 13.4 µM
--
compound: CC(C)(C)C1=CC(C)(n2[nH]c(=O)n(-c3ccccc3)c2=O)C=C(C(C)(C)C)C1=O
TGI: > 100 µM
--
compound: O=C(c1ccccc1)N(C(=O)c1ccccc1)c1nc(SCc2ccccc2)ns1
TGI: > 100 µM
--
compound: COC1C(N)C(OC2C(Oc3cccc4c(O)c5c(=O)oc6ccc(C)c7c(=O)oc(c34)c5c67)OC(C)C(O)C2(C)O)OC(C)C1O (stereo not drawn)
TGI: 0.104 µM
--
compound: O=C1Cc2c([nH]c3ccc(Br)cc23)-c2cc(O)c(O)cc2N1
TGI: > 100 µM
--
compound: COC(=O)c1ccc2c(c1)S/C(=C/c1ccc3ccc4cccc5ccc1c3c45)S2
TGI: > 100 µM
--
compound: CCCCCO/N=C\c1c2c(O)c3c(O)c(C)c4c(c3c1O)C(=O)C(C)(O/C=C\C(OC)C(C)C(OC(C)=O)C(C)C(O)C(C)C(O)C(C)/C=C\C=C(\C)C(=O)N2)O4 (stereo not drawn)
TGI: 3.23 µM
--
compound: c1cnc2c(c1)ccc1cccnc12
TGI: > 100 µM
--
compound: Cc1cc(C#Cc2ccc(C(C)(C)C)cc2)ccc1-n1c(/C=C/c2ccc(O)cc2O)nc2ccccc2c1=O
TGI: 18 µM
--
compound: COc1cc2c(c(O)c1OC)C(=O)[C@@H]1CCC(=O)N1C2
TGI: > 100 µM
--
compound: c1ccc2cc(-c3n(Cc4ccc5ccccc5n4)c4ccccc4[n+]3Cc3ccc4ccccc4n3)ccc2c1
TGI: 1.42 µM
--
compound: Cc1cc(N(CCC#N)CCC#N)ccc1/C(N=Nc1cccc(Cl)c1)=N/NC(=O)c1cc(Cl)ccc1O
TGI: 75.2 µM
--
compound: Cc1nc(C(=O)O)c2ccccc2n1
TGI: > 100 µM
--
compound: CSc1nc2sc3c(c2c(=O)n1-c1ccc(C(C)C)cc1)CCC(=O)C3
TGI: 5.2 µM
--
compound: COCCNC(=O)C1C(=O)C(=O)N(CCOC)C1=O (stereo not drawn)
TGI: > 100 µM
--
compound: Nc1[nH]c(=O)nc2c1cnn2C1CCCCO1 (stereo not drawn)
TGI: > 100 µM
--
compound: O=C(CC1(O)C(=O)N(Cc2ccccc2)c2ccccc21)c1ccc(C(=O)NCC2CCC3(CC2)OOC2(CCCCC2)OO3)cc1 (stereo not drawn)
TGI: 4.03 µM
--
compound: NS(=O)(=O)c1ccc(-c2cc3ccncc3cc2OCc2ccccc2)cc1
TGI: > 25 µM
--
compound: COC(=O)c1cncc(/C=C/c2c(C)cc(O)cc2C)c1
TGI: > 25 µM
--
compound: C/C(=N/N=C(\[O-])c1ccncc1)C(F)(F)F.C/C(=N\N=C(/[O-])c1ccncc1)C(F)(F)F.[Ni+2]
TGI: > 1 µM
--
compound: CC12CCC(=O)N1c1ccc([N+](=O)[O-])cc1N2 (stereo not drawn)
TGI: > 100 µM
--
compound: Cc1nc2ccc(C(F)(F)F)cc2nc1NCc1ccc(Cl)c(Cl)c1
TGI: 34 µM
--
compound: Cc1ccc2nc(N/N=C/c3sccc3C)cc(C)c2c1
TGI: > 100 µM
--
compound: CN(C)C(=NCc1ccccc1)NC#N
TGI: > 100 µM
--
compound: Cc1ccc(C)c(N2C(=O)C(=O)C(c3nc4ccccc4s3)/C(=N/NC(=O)NN)C2=O)c1 (stereo not drawn)
TGI: > 100 µM
--
compound: NNC(=O)c1c(-c2cccnc2)cnc2ccccc12
TGI: > 100 µM
--
compound: CC1(C)CC(=O)C(/C(=N/NC(=S)NN)C(=O)Nc2nc3ccc([N+](=O)[O-])cc3s2)C(=O)C1
TGI: > 100 µM
--
compound: O=[N+]([O-])c1ccc(OC2CC3C4C=CC3C2C4)c([N+](=O)[O-])c1 (stereo not drawn)
TGI: > 100 µM
--
compound: COc1ccc2c(c1)c1c(n2CCN(C)C)-c2ccccc2CC1
TGI: 32.7 µM
--
compound: CC(=O)NC1C(OCc2ccccc2)OC(CO)C(O)C1OC(C)C(=O)NC(C)C(=O)NC(CCC(=O)NCCCCNc1c2ccccc2nc2cccc([N+](=O)[O-])c12)C(N)=O (stereo not drawn)
TGI: 0.316 µM
